Source of measurements: PubChem BioAssay

# protocol: growth suppression of yeast trafficking mutant, preliminary HTS, modulators of trafficking downstream of Golgi apparatus project, 1536-format plate, OD 615 nm (AID 637); also: test concentration not given here
# condition.details: yeast transport mutant growth, absorbance 615 nm, 18 h; hits give high values
measurement.label: inhibition (%)
Numeric answer only, unit % assumed.

* O=S(=O)(c1ccccc1)N1CCN(C2CCCCCCC2)CC1 | 1.9
* c1ccc2[nH]c(CSc3nnc(-c4ccncc4)o3)nc2c1 | 2.06
* O=C(NC1CCCCC1)C(c1ccc(Cl)cc1)N(C(=O)c1cnccn1)c1ccc2c(c1)OCO2 (configuration not stated) | -5.71
* O=C(NCc1nc2ccccc2[nH]1)c1ccco1 | -1.9
* Oc1ccc(Nc2nc(-c3ccc(O)cc3)cs2)cc1 | -4.13
* COc1ccc(C2(C(=O)Nc3cc(C)on3)CCOCC2)cc1 | 10.8

# ---- query compound ----
Problem: inhibition for "COc1cccc(NC(=O)C2CCN(c3ncccn3)CC2)c1" ?
Result: -12.5
